Tested on: SF-295 CNS
procedure_details: NCI tumour cell line growth inhibition, 48 h
result_type: TGI

compound_structure: O=C(O)CCCCCCCCCCN1C(=O)/C(=C/c2cnc(-c3ccc(Cl)cc3)s2)SC1=S
assay_value: 7.26 µM

compound_structure: NS(=O)(=O)c1ccc(N=Nc2c(O)n(CC(=O)Nc3ccccc3Cl)c3ccccc23)cc1
assay_value: 3.58 µM

compound_structure: COc1cc2cc(C(=O)N3C[C@@H](CCl)c4c3cc(OC(=O)N3CCN(C)[C@@H]5CSSC[C@@H]53)c3ccccc43)[nH]c2c(OC)c1OC
assay_value: 0.474 µM

compound_structure: COc1ccc(-c2cc(-c3cc(OC)c(OC)c(OC)c3)[nH]c(=O)c2C#N)cc1
assay_value: 32.3 µM

====

Tested on: MDA-MB-468 breast
procedure_details: NCI tumour cell line growth inhibition, 48 h; in the data active = GI50 below about 0.43 µM; inactive = the rest
Classes used: active, inactive

compound: COc1cc(OC)c(/C=C/C(=O)c2c(OC)cccc2OC)c(OC)c1
system_tested: MDA-MB-468 breast
group: active

compound: O=C(Nc1ccc(Cl)cc1)c1cc(-c2ccc(F)cc2)c2sc(=O)[nH]c2n1
system_tested: MDA-MB-468 breast
group: inactive

compound: Cc1ccc(C(=NN=C(N)N)c2ccc(C)cc2)cc1
system_tested: MDA-MB-468 breast
group: active

compound: CN(C)c1ccc(N)cc1
system_tested: MDA-MB-468 breast
group: inactive

compound: COc1cc(C2=NN(C(C)=O)C(c3ccc(OC(C)=O)cc3OC(C)=O)O2)c(OC(C)=O)c2ccccc12 (stereo not drawn)
system_tested: MDA-MB-468 breast
group: inactive

compound: CCOC(=O)c1cc(/C(=N\O)c2cc(OC)c(OC)c(OC)c2)n2cc(C)cc(C)c12
system_tested: MDA-MB-468 breast
group: inactive

compound: Nc1ncc(-c2cnn(CCO)c2)c2scc(-c3ccc(NC(=O)Nc4cccc(F)c4)cc3)c12
system_tested: MDA-MB-468 breast
group: inactive

compound: O=C(CCl)Nc1ccc(Cl)cc1
system_tested: MDA-MB-468 breast
group: inactive

====

Tested on: MDA-MB-468 breast
procedure_details: NCI tumour cell line growth inhibition, 48 h
Each entry below lists one item and its recorded log10 of TGI value.
result_type: log10 of TGI (log10 of the value in µM)

compound: Cc1ccc(C(=NN=C(N)N)c2ccc(C)cc2)cc1
assay_value: -0.12

compound: COc1ccc(OC)c(/C=C/C(=O)N/N=C/c2ccc(Cl)cc2)c1
assay_value: -0.44

compound: CCOC(=O)c1cc(/C(=N\O)c2cc(OC)c(OC)c(OC)c2)n2cc(C)cc(C)c12
assay_value: 0.68

compound: CCN(CC)c1ccc(C(=N)c2ccc(N(CC)CC)cc2)cc1
assay_value: 0.16

compound: COc1cc(C2=NN(C(C)=O)C(c3ccc(OC(C)=O)cc3OC(C)=O)O2)c(OC(C)=O)c2ccccc12 (stereo not given)
assay_value: 0.82

compound: COc1ccc(-c2cc(-c3cc(OC)c(OC)c(OC)c3)[nH]c(=O)c2C#N)cc1
assay_value: 1.67

compound: Nc1ncc(-c2cnn(CCO)c2)c2scc(-c3ccc(NC(=O)Nc4cccc(F)c4)cc3)c12
assay_value: 0.75

compound: COc1cc(NC(=O)c2cc(O)c(CC=C(C)C)c(O)c2)cc2c1O[C@]1(C)CC[C@@H](O)C(C)(C)[C@H]1C2
assay_value: 1.30

compound: CCC#CC[C@H]1C/C=C2/C(=O)C=C[C@@H]2C/C=C\CCCC(=O)O1
assay_value: 0.74

compound: O=C(Nc1ccc(Cl)cc1)c1cc(-c2ccc(F)cc2)c2sc(=O)[nH]c2n1
assay_value: 0.70

// provenance: PubChem BioAssay (NCI)
